- Test Summary: qHTS for induction of synthetic lethality in tumor cells producing 2HG: qHTS for the HT-1080-IDH1KD cell line
- Recorded Conditions: HT-1080 IDH1 knockdown viability, ATP luminescence, 48 h; series mostly up to 46.1 µM
The whole screen tested about 360,000 compounds, of which about 7,500 (2.1%) were called active. About 8% were inconclusive and are not listed. Calls follow the shape of the dose curve; as a rule, active = well fitted cell-killing curve with a large enough effect; inconclusive = small, poorly fitted or top-dose-only effect, or effect the other way, or another doubt; inactive = no such curve, though single readings can be large or run the other way. This is one part of a sample in which actives are shown more often than they occur.
Select the correct class. Options are True = active, False = inactive and nothing else.

Before answering, review these 6 worked examples.
CCOc1ccc(CCN2C(=O)C(=O)N([C@@H](CC(C)C)CN3CCC[C@H]3CN3C(=O)C(=O)NC[C@@H]3Cc3ccccc3)C[C@@H]2CC(C)C)cc1 :: False
CCC1OC(C2CC2)CC2=C1C(=O)OC(C)(C)O2 (centres undefined) :: False
CCC(=O)N1CCCC1(C)C(=O)Nc1ccc2c(c1)CCN2C(C)=O (centres undefined) :: False
O=C(Nc1cc(Br)ccc1F)c1nc[nH]c1C(=O)NCc1ccccc1 :: False
COc1cccc(NC(=O)C2(C)CCN2Cc2ccccc2Cl)c1 (centres undefined) :: False
COc1ccc(CN2C[C@H]3CON(C)[C@H]3C[C@H]2c2ccc(-c3cccc(F)c3)cc2)cc1 :: False

Recorded test outcome, item CC(C)Nc1nc(NCCOc2ccccc2Cl)c2sccc2n1
True

Recorded test outcome, item NNC(=O)c1nnn(-c2nonc2N)c1CN1CCCC1
False

Recorded test outcome, item O=C(Cc1c(O)c2ccccc2[nH]c1=O)NCc1ccccc1
False

Recorded test outcome, item CN(Cc1ccc(C(F)(F)F)cc1)C(=O)[C@H]1O[C@@H](n2cnc3c(N)ncnc32)[C@H](O)[C@@H]1O
False

Recorded test outcome, item CCN1CCC(O)(/C=C/c2ccc(C)cc2)C(C(=O)/C=C/c2ccc(C)cc2)C1 (centres undefined)
True

Attribution: PubChem BioAssay AID686971
